Answer each item with its documented KIDNEY_L.
# Organism: Rattus norvegicus
# METHOD SUMMARY: Open TG-GATES - Regimen: Single
# Assay type: toxicity, organism-based, Sprague-Dawley
# Set-up: regimen Single, gender Male, age 6 weeks
# TEST CONTEXT: in vivo, po, 10 mg/kg, 24 h, tissue Kidney, route gavage, dose level Low
Numbers only, in g.

Please go through the list and note KIDNEY_L for each compound.
1. CN(C)CCCN1c2ccccc2CCc2ccc(Cl)cc21
2. CC(C)OC(=O)C(C)(C)Oc1ccc(C(=O)c2ccc(Cl)cc2)cc1 [FENOFIBRATE]
3. CN(C)CCN(Cc1cccs1)c1ccccn1

1.1
0.8
0.9

Please go through the list and note KIDNEY_L for each compound.
1. CC1=C(/C=C/C(C)=C/C=C/C(C)=C/CO)C(C)(C)CCC1
2. CN(C)CCCN1c2ccccc2CCc2ccccc21

1. 1
2. 0.9

---

# Species: Rattus norvegicus
# METHOD SUMMARY: Open TG-GATES - Regimen: Single
# Format: toxicity, organism-based, Sprague-Dawley
# Design: regimen Single, gender Male, age 6 weeks
# TEST CONTEXT: in vivo, po, 0 mg/kg, 9 h, tissue Plasma, route gavage, dose level Control
MEASURED PARAMETER: K (meq/L)
Answers are plain numbers, in meq/L.

The cases that follow already have their K on record.
[[record]]
molecule = "CN1C(=O)CN=C(c2ccccc2)c2cc(Cl)ccc21"
reported = 4.8

[[record]]
molecule = "CN(C)CCN(Cc1cccs1)c1ccccn1"
reported = 4.2

[[record]]
molecule = "COC1=CC(=O)C[C@@H](C)[C@]12Oc1c(Cl)c(OC)cc(OC)c1C2=O"
reported = 4

[[record]]
molecule = "Cc1ccc(C)c(OCCCC(C)(C)C(=O)O)c1"
reported = 4

[[record]]
molecule = "CCOc1ccc(NC(=O)CC(C)O)cc1 (centres undefined)"
reported = 4


Please go through the list and note K for each molecule.
1. NNC(=O)c1ccncc1
2. O=C(CCCN1CCC(O)(c2ccc(Cl)cc2)CC1)c1ccc(F)cc1

3.8
5.1

Please go through the list and note K for each molecule.
1. C[C@@H]1C[C@H]2[C@@H]3CCC4=CC(=O)C=C[C@]4(C)[C@@]3(F)[C@@H](O)C[C@]2(C)[C@@]1(O)C(=O)CO
2. CCCNC(=O)NS(=O)(=O)c1ccc(Cl)cc1 [CHLORPROPAMIDE]

[4.4, 3.9]

---

# Species: Rattus norvegicus
# METHOD SUMMARY: Open TG-GATES - Regimen: Single
# Format: toxicity, organism-based, Sprague-Dawley
# Design: regimen Single, gender Male, age 6 weeks
# TEST CONTEXT: in vivo, po, 0 mg/kg, 3 h, tissue Plasma, route gavage, dose level Control
Assign labels as follows, please: t for IP below 9 mg/dL; f for IP equal to or exceeding 9 mg/dL.

# example entries with known answers
[[record]]
molecule = "CN(C)CCCN1c2ccccc2CCc2ccc(Cl)cc21 [CLOMIPRAMINE]"
category = "f"

[[record]]
molecule = "COc1ccc2[nH]c([S+]([O-])Cc3ncc(C)c(OC)c3C)nc2c1 (centres undefined) [OMEPRAZOLE]"
category = "t"

[[record]]
molecule = "Cc1ccc(C)c(OCCCC(C)(C)C(=O)O)c1 [GEMFIBROZIL]"
category = "f"

[[record]]
molecule = "C[C@@H]1C[C@H]2[C@@H]3CCC4=CC(=O)C=C[C@]4(C)[C@@]3(F)[C@@H](O)C[C@]2(C)[C@@]1(O)C(=O)CO [DEXAMETHASONE]"
category = "f"

[[record]]
molecule = "O=C(CCCN1CCC(O)(c2ccc(Cl)cc2)CC1)c1ccc(F)cc1 [HALOPERIDOL]"
category = "f"


Pending molecule:
In plain terms, does COc1cc2c(c(OC)c1OC)-c1ccc(OC)c(=O)cc1[C@@H](NC(C)=O)CC2 [COLCHICINE] come in under 9 mg/dL for IP?
f

---

# Species: Rattus norvegicus
# METHOD SUMMARY: Open TG-GATES - Regimen: Daily Repeat
# Format: toxicity, organism-based, Sprague-Dawley
# Parameters: regimen Daily Repeat, gender Male, age 6 weeks
# TEST CONTEXT: in vivo, po, 100 mg/kg, […], tissue Plasma, route gavage, dose level Low, time 14 day
Answer each item with its documented TP.
Numbers only, in g/dL.

Please go through the list and note TP for each molecule.
1. COc1ccc2[nH]c([S+]([O-])Cc3ncc(C)c(OC)c3C)nc2c1 (stereo not given)
2. NC(N)=Nc1nc(CSCCC(N)=NS(N)(=O)=O)cs1
3. CCOc1ccc(NC(=O)CC(C)O)cc1 (stereo not given)
4. CCOC(=O)CCC(=O)O[C@H]1[C@H](O[C@@H]2[C@@H](C)[C@H](O[C@H]3C[C@@](C)(OC)[C@@H](O)[C@H](C)O3)[C@@H](C)C(=O)O[C@H](CC)[C@@](C)(O)[C@H](O)[C@@H](C)C(=O)[C@H](C)C[C@@]2(C)O)O[C@H](C)C[C@@H]1N(C)C [ERYTHROMYCIN ETHYLSUCCINATE]

[5.8, 5.6, 6.1, 5.7]

Give a short answer stating reported TP for COC1=CC(=O)C[C@@H](C)[C@]12Oc1c(Cl)c(OC)cc(OC)c1C2=O .
5.8

---

# Organism: Rattus norvegicus
# METHOD SUMMARY: Open TG-GATES - Regimen: Daily Repeat
# Type: toxicity, organism-based, Sprague-Dawley
# Design: regimen Daily Repeat, gender Male, age 6 weeks
# TEST CONTEXT: in vivo, po, 300 mg/kg, 72 h, tissue Plasma, route gavage, dose level Middle, time 3 day
MEASURED PARAMETER: DBIL (mg/dL)
Answers are plain numbers, in mg/dL.

Please go through the list and note DBIL for each compound.
1. COC1=CC(=O)C[C@@H](C)[C@]12Oc1c(Cl)c(OC)cc(OC)c1C2=O
2. CCOC(=O)CCC(=O)O[C@H]1[C@H](O[C@@H]2[C@@H](C)[C@H](O[C@H]3C[C@@](C)(OC)[C@@H](O)[C@H](C)O3)[C@@H](C)C(=O)O[C@H](CC)[C@@](C)(O)[C@H](O)[C@@H](C)C(=O)[C@H](C)C[C@@]2(C)O)O[C@H](C)C[C@@H]1N(C)C [ERYTHROMYCIN ETHYLSUCCINATE]
3. NC(N)=Nc1nc(CSCCC(N)=NS(N)(=O)=O)cs1
4. COc1ccc2[nH]c([S+]([O-])Cc3ncc(C)c(OC)c3C)nc2c1 (stereo not given)
5. CCOc1ccc(NC(=O)CC(C)O)cc1 (stereo not given)

1: 0.084; 2: 0; 3: 0.082; 4: 0.058; 5: 0.024

---

# Organism: Rattus norvegicus
# METHOD SUMMARY: Open TG-GATES - Regimen: Daily Repeat
# Type: toxicity, organism-based, Sprague-Dawley
# Design: regimen Daily Repeat, gender Male, age 6 weeks
# TEST CONTEXT: in vivo, po, 10 mg/kg, […], tissue Blood, route gavage, dose level Low, time 28 day
MEASURED PARAMETER: Bas (%)
Give bare numbers, in %.

[[record]]
compound = "CN(C)CCCN1c2ccccc2CCc2ccccc21"
measured_parameter = "Bas"
reported = 0.4


Please go through the list and note Bas for each compound.
1. CC(C)OC(=O)C(C)(C)Oc1ccc(C(=O)c2ccc(Cl)cc2)cc1 [FENOFIBRATE]
2. CC1=C(/C=C/C(C)=C/C=C/C(C)=C/CO)C(C)(C)CCC1

1: 0; 2: 0

Give a short answer stating reported Bas for CN(C)CCN(Cc1cccs1)c1ccccn1 .
0

---

# Species on record: Rattus norvegicus
# METHOD SUMMARY: Open TG-GATES - Regimen: Single
# Type: toxicity, organism-based, Sprague-Dawley
# Set-up: regimen Single, gender Male, age 6 weeks
# TEST CONTEXT: in vivo, po, 1000 mg/kg, 3 h, tissue Kidney, route gavage, dose level High
MEASURED PARAMETER: KIDNEY_R (g)
Numbers only, in g.

The cases that follow already have their KIDNEY_R on record.
[[record]]
compound = "CCOC(=O)CCC(=O)O[C@H]1[C@H](O[C@@H]2[C@@H](C)[C@H](O[C@H]3C[C@@](C)(OC)[C@@H](O)[C@H](C)O3)[C@@H](C)C(=O)O[C@H](CC)[C@@](C)(O)[C@H](O)[C@@H](C)C(=O)[C@H](C)C[C@@]2(C)O)O[C@H](C)C[C@@H]1N(C)C [ERYTHROMYCIN ETHYLSUCCINATE]"
reported = 1

[[record]]
compound = "COC1=CC(=O)C[C@@H](C)[C@]12Oc1c(Cl)c(OC)cc(OC)c1C2=O [GRISEOFULVIN]"
reported = 0.9

[[record]]
compound = "COc1ccc2[nH]c([S+]([O-])Cc3ncc(C)c(OC)c3C)nc2c1 (stereo not given) [OMEPRAZOLE]"
reported = 1

[[record]]
compound = "NC(N)=Nc1nc(CSCCC(N)=NS(N)(=O)=O)cs1 [FAMOTIDINE]"
reported = 1


Attention now shifts to the item below.
Give a short answer stating reported KIDNEY_R for CC(C)OC(=O)C(C)(C)Oc1ccc(C(=O)c2ccc(Cl)cc2)cc1 [FENOFIBRATE] .
0.8
